# study target: T1, ZFP SBS#407 (synthetic)
# T1 chain: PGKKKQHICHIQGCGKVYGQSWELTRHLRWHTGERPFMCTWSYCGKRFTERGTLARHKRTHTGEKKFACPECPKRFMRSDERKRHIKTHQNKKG
# assay: EMSA
# test settings: tags: MBP fusion
measured endpoint: Kd (nM)

binder: GCGGCCGCA (dsDNA) DNA 1: GCGGCCGCA DNA 2: TGCGGCCGC
measured endpoint: Kd
scale unit: nM
recorded value: 410
